system: HepG2; experiment: cytotoxicity call (relative viability < 0.9); settings: 10 µM
In all, about 39,000 compounds went through this assay and about 3,300 (8.5%) were called active. Shown is part of a subset that was picked to be rich in actives.
Allowed answers: class 1 = active, class 0 = inactive

Examples with answers:
C[C@@H]1CCCCO[C@H](CN(C)CC2CCCCC2)[C@H](C)CN([C@H](C)CO)C(=O)c2cc(NC(=O)c3ccccc3)ccc2O1	class 1
C[C@@H]1CN([C@@H](C)CO)C(=O)c2cc(NC(=O)c3ccccc3)ccc2O[C@@H](C)CCCCO[C@@H]1CN(C)CC1CCCCC1	class 0
C[C@@H]1CN([C@H](C)CO)C(=O)Cc2cc(N(C)C)ccc2O[C@@H]1CN(C)S(=O)(=O)c1cn(C)cn1	class 0

-- ask Name the outcome recorded for `C[C@@H]1CCCCO[C@@H](CN(C)CC2CCCCC2)[C@H](C)CN([C@H](C)CO)C(=O)c2cc(NC(=O)c3ccccc3)ccc2O1` in the assay.
-- reply class 0
